- measuredOn: T1, IFN-α4a (human, UniProt P05014 24-189)
- T1 construct: Recombinant, HEK293; also called IFN-αM1
- assayName: ProteOn SPR, cell supernatant;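 also: each binding measurement used just a single antigen concentration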
Property: log10(Kd); scope: individual binders
Would you kindly interpret these values as log10 of Kd expressed in nM?

Consider the worked cases shown below.
IFWM3399 (antibody, IgG1, V domains shown, mAb; IgG1/kappa said of the parent and of selected mAbs; also called IFWB3134) VH: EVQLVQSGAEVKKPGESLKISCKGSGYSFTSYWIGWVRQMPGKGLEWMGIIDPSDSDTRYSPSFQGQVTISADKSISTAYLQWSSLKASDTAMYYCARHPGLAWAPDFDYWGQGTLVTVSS VL: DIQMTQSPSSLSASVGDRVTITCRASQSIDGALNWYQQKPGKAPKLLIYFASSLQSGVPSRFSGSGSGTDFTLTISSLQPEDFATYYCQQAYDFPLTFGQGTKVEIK    -1.06
IFWM3379 (antibody, IgG1, V domains shown, mAb; IgG1/kappa said of the parent and of selected mAbs; also called IFWB3114) VH: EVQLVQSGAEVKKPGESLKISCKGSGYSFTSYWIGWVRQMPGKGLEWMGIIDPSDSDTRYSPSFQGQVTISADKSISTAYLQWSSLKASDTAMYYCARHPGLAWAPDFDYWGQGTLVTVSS VL: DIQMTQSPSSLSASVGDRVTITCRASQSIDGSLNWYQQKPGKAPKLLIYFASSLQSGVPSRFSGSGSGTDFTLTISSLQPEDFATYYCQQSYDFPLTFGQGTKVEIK    -1.14
IFWM3375 (antibody, IgG1, V domains shown, mAb; IgG1/kappa said of the parent and of selected mAbs; also called IFWB3110) VH: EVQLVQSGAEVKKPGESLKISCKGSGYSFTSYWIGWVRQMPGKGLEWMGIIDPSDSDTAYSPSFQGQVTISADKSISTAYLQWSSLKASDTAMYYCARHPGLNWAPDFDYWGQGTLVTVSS VL: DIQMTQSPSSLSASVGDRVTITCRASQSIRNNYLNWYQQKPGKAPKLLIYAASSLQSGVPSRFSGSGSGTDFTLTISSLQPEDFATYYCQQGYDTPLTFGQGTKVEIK    -1.17
IFWM3396 (antibody, IgG1, V domains shown, mAb; IgG1/kappa said of the parent and of selected mAbs; also called IFWB3131) VH: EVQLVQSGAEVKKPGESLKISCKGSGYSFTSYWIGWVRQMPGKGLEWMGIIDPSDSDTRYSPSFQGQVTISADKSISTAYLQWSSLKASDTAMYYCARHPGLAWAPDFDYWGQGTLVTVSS VL: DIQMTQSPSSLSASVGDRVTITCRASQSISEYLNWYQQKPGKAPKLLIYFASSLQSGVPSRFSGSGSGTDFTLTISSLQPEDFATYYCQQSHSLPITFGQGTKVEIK    -1.10
IFWM3376 (antibody, IgG1, V domains shown, mAb; IgG1/kappa said of the parent and of selected mAbs; also called IFWB3111) VH: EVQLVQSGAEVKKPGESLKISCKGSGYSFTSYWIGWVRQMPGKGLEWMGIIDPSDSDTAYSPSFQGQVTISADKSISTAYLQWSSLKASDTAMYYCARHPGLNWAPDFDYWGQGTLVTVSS VL: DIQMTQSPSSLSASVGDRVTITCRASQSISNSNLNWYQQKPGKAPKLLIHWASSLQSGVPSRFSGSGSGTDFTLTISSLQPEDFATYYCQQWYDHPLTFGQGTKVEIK    -0.95
IFWM3398 (antibody, IgG1, V domains shown, mAb; IgG1/kappa said of the parent and of selected mAbs; also called IFWB3133) VH: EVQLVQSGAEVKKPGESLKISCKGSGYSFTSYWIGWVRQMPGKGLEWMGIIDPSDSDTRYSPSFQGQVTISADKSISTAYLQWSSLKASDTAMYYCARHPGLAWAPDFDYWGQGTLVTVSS VL: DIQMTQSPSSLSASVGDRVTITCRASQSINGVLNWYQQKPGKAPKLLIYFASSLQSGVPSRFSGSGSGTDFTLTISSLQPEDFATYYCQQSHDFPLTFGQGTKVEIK    -1.21

Task: Param item = IFWM3370 (antibody, IgG1, V domains shown, mAb; IgG1/kappa said of the parent and of selected mAbs; also called IFWB3105) VH: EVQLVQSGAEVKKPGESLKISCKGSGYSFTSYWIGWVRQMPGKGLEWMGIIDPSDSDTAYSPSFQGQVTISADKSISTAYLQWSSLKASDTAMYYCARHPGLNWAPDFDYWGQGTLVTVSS VL: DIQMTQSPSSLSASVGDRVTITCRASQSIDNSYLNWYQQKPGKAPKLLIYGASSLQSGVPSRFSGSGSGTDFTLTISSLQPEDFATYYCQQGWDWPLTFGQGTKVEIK ; retrieve measured log10(Kd).
Output: -0.81

Task: Let us now turn to IFWM3293 (antibody, IgG1, V domains shown, mAb; IgG1/kappa said of the parent and of selected mAbs; also called IFWB3028) VH: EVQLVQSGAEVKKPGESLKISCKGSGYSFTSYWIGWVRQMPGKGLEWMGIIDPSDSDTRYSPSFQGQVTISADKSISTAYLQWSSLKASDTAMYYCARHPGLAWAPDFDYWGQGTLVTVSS VL: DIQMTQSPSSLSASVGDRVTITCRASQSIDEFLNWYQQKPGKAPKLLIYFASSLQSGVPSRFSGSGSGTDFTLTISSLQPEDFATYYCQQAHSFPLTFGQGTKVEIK
Output: -0.78

Task: Let us now turn to IFWM3419 (antibody, IgG1, V domains shown, mAb; IgG1/kappa said of the parent and of selected mAbs; also called IFWB3154) VH: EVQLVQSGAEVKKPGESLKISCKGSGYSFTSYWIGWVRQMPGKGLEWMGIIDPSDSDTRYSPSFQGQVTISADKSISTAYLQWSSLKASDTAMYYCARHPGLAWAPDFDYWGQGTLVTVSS VL: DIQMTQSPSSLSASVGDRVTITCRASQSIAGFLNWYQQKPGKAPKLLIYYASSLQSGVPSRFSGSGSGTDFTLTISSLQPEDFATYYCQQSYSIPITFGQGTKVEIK
Output: -0.24

Task: Let us now turn to IFWM3418 (antibody, IgG1, V domains shown, mAb; IgG1/kappa said of the parent and of selected mAbs; also called IFWB3153) VH: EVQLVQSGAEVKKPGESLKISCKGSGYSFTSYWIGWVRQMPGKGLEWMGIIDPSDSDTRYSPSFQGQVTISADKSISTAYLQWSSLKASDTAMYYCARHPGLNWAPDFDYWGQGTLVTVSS VL: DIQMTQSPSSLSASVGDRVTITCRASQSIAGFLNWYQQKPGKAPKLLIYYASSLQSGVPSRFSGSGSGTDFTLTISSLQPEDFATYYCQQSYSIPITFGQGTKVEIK
Output: 0.06
